Origin of values: the supplement of paper PMC7411054

# Test system: A549-TP53BP1-CLTA
# Test protocol: phenotypically active (imaging signature differs from DMSO and reproducible) at any of 0.3-9 uM (binary (1 = active, 0 = inactive)); higher = active
# Test conditions: treatment time: 24 h
Readout: phenotypically active

Compound	Assay result
C[C@H]1COCCN1c1cc(C2(S(=O)(=O)C3CC3)CC2)nc(-c2ccc(NC(=S)NCCO)cc2)n1	1
Cc1[nH]c(=O)c(C#N)cc1-c1ccncc1	0
O=C(Nc1ccccc1)N1CCN(c2nc(-c3ccccc3)ns2)CC1	0
CC[C@]12CCCN3CCc4c(n(c5ccccc45)[C@@](O)(C(=O)OC)C1)[C@@H]32	0
COc1cc(C)c(Sc2cnc(NC(=O)c3ccc(CNC(C)C(C)(C)C)cc3)s2)cc1C(=O)N1CCN(C(C)=O)CC1 (centres undefined)	1
CCCCc1c(O)n(-c2ccccc2)n(-c2ccccc2)c1=O	0
NCCC(O)(P(=O)(O)O)P(=O)(O)O [pamidronate]	0
CC(C)c1ccc(NC(=O)Cn2cnc3c2c(=O)n(C)c(=O)n3C)cc1	0
CC(=O)CCCCn1c(=O)c2c(ncn2C)n(C)c1=O	0
